Measured on: HIV TAR
Assay: 2-aminopurine (2AP) fluorescence binding assay
Condition: 2AP-labeled HIV TAR, excess tRNA; single binding event; read-out: affinity by fitting Equation 1

{"columns": ["Smiles data", "Kd"],
 "data": [
  ["CN(C)C(=O)c1cc2cnc(Nc3ccc(N4CCNCC4)cn3)nc2n1C1CCCC1", "0.215 µM"]
]}

Entry source: patent US20230132667A1
